- target: Phosphatidylinositol 4,5-bisphosphate 3-kinase catalytic subunit alpha isoform (Homo sapiens, UniProt P42336)
- Sequence (P42336 whole entry, canonical isoform): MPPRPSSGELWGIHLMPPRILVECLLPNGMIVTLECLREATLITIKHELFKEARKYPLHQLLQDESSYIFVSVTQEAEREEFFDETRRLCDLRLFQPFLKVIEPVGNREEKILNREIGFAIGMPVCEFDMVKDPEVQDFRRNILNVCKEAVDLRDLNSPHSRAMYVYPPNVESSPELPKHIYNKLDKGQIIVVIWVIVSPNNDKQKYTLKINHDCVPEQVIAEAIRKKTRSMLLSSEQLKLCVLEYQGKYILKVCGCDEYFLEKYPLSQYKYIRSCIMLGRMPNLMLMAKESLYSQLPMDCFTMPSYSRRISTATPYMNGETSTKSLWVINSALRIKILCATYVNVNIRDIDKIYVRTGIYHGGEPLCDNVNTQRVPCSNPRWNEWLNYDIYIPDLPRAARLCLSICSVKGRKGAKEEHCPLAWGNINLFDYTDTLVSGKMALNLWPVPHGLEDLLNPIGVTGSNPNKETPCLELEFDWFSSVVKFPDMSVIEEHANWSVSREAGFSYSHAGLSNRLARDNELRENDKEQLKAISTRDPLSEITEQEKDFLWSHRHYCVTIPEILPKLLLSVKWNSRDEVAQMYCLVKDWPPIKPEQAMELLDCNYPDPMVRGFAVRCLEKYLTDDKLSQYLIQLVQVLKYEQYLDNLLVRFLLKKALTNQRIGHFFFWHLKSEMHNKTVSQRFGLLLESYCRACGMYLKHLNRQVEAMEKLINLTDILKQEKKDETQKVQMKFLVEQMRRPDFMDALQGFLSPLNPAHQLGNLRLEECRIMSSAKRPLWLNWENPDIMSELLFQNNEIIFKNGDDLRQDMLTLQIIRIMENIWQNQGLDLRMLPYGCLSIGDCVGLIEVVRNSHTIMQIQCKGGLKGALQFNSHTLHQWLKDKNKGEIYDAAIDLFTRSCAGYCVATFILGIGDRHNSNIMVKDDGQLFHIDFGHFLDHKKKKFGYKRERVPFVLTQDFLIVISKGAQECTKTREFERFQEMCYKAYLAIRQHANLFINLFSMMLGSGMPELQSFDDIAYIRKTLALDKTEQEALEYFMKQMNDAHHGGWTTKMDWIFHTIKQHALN
- experiment_summary: Inhibition of full length PI3Kalpha (unknown origin) assessed as reduction in PIP3 formation using PIP2 as substrate after 45 mins by fluorescence polarization assay
readout_label: pIC50
// pIC50 is dimensionless: -log10 of concentration (M)

Cc1c(N)cccc1N : 4.70

Which pIC50 value is on record for Oc1ccccc1O [CATECHOL] ?
4.48

Entry source: ChEMBL document CHEMBL3877328
